# Test system: OVCAR-3 ovarian
# PROCEDURE_DETAILS: NCI-60 one-dose screen, 48 h
# COND: 10 µM
This is part of a sample that, as a whole, favours compounds with a hit. Of some 83,000 tested, about 20% had one in any assay. Active and inactive are the calls of the source. Rule for the calls: active = growth percent below 10; inactive = the rest.
Pick from 1 for active, -1 for inactive when you respond.

>>> classification("O=C(c1ccc(-n2c(=O)[nH]c3ccccc3c2=O)cc1)N1CCOCC1")
-1
>>> classification("O=c1c2ccccc2nc(COc2ccccc2)n1/N=C/c1ccc(N2CCOCC2)cc1")
-1
>>> classification("O=C(Nc1ccc(Cl)c([N+](=O)[O-])c1)Nc1ccc(Cl)c([N+](=O)[O-])c1")
1
>>> classification("COc1cc2c3c(n(CCCNCCO)c(=O)c2cc1OC)-c1nc2c(cc1C3=O)OCO2")
1
>>> classification("CC(=O)Nc1ccc(-n2cnc3cc(-c4ccc(NS(C)(=O)=O)cc4)ccc32)cc1")
-1
>>> classification("Cc1ccc(C(=O)NCCCNc2nc(Nc3ccc(N4CCN(C)CC4)cc3)nc3ccsc23)cc1")
-1
>>> classification("COc1ccc(-c2nc(S(=O)(=O)c3ccc(C)cc3)c(S(=O)(=O)CC(=O)N(C)Cc3ccccc3)o2)cc1")
1
>>> classification("C#CCNC(=O)[C@]12CCC(C)(C)C[C@H]1C1=CC[C@@H]3[C@@](C)(CCC#N)[C@H](C(=C)C)CC[C@@]3(C)[C@]1(C)CC2")
-1
>>> classification("COc1cc(-c2nc3cc(Cl)c(Cl)cc3[nH]2)ccc1OCc1nnc(-c2ccc(Br)cc2)o1")
1
>>> classification("COc1cc(C2CC(c3ccccc3)=Nc3c(N)nc(N)nc3N2)ccc1Oc1nc(Nc2ccc(F)cc2)nc(N(C)C)n1 (configuration not stated)")
-1

Next item in the queue.
Q. Hey, what did the test say about `CCN1CCN(Cc2ccc(C(=O)Nc3cccc(-c4cn(-c5ccc6oc(=O)ccc6c5)nn4)c3)cc2C(F)(F)F)CC1` ?
A. 1

====

# System: SK-MEL-2 melanoma
# PROCEDURE_DETAILS: NCI-60 one-dose screen, 48 h (100 = growth as untreated, 0 = no growth, -100 = all killed)
# COND: 10 µM
Compounds without any hit were thinned out: in the full panel of roughly 83,000, 20% have a hit.
PROPERTY_LABEL: growth (%)
One number for each entry, in %.

>>> value("N#Cc1c(Cl)nc(SCc2ccc(F)cc2)nc1-c1ccc(F)cc1")
97.9
>>> value("N#Cc1c(-c2ccc(Cl)cc2)cc(-c2ccccc2)nc1OCc1ccccc1")
76
>>> value("Cc1cccc2cc(-c3cc(-c4ccccc4)nc(=O)[nH]3)c(Cl)nc12")
102

Q. Using the record for `CN(C(=O)c1ccc(C(C)(C)C)cc1)c1sc2c(c1C#N)CCC(=O)C2` , report its growth.
A. 97.7

====

# System: OVCAR-4 ovarian
# PROCEDURE_DETAILS: NCI-60 one-dose screen, 48 h (100 = growth as untreated, 0 = no growth, -100 = all killed)
# COND: 10 µM
Compounds without any hit were thinned out: in the full panel of roughly 83,000, 20% have a hit.
Threshold check on growth: strictly below 80% is fulfilled; on or above 80% is not fulfilled.

>>> classification("O=C(CNc1nc(-c2ccccc2)cs1)Nc1ccccc1")
"fulfilled"
>>> classification("CCOC(=O)C1=C(N)N(c2ccc(Cl)cc2)C2=C(C(=O)CC(C)(C)C2)C1c1ccc(N2CCOCC2)cc1 (configuration not stated)")
"not fulfilled"
>>> classification("C=C[C@@]12CN3CC[C@]1(O)[C@@](C(=O)OC)(CO2)c1[nH]c2ccccc2c1C3")
"fulfilled"
>>> classification("CC1(C)CC[C@]2(C(=O)Nc3ccccc3)CC[C@]3(C)C(=CC[C@@H]4[C@@]5(C)CC[C@H](N)C(C)(C)[C@@H]5CC[C@]43C)[C@H]2C1")
"fulfilled"
>>> classification("CS(=O)(=O)Nc1ccc(-c2ccc3c(c2)ncn3-c2ccc(NC(=O)Nc3ccc(Cl)c(C(F)(F)F)c3)cc2)cc1")
"fulfilled"
>>> classification("O=C(Nc1ccc(F)c(Cl)c1)c1cc(-c2ccc(F)cc2F)ccc1O")
"fulfilled"
>>> classification("NC1=NC(c2ccccc2Cl)N=C(Nc2nn[nH]n2)N1 (configuration not stated)")
"not fulfilled"
>>> classification("Cc1ccc(C(=O)NNC(=O)CSc2nc3ccccc3c(=O)[nH]2)cc1")
"not fulfilled"
>>> classification("S=c1nc(-c2ccccc2)cc(-c2cc3ccccc3nc2Cl)[nH]1")
"not fulfilled"
>>> classification("O=C(CSc1nnc(-c2c[nH]c3ccccc23)n1-c1ccccc1)c1ccc(Cl)cc1")
"fulfilled"

Q. Bench note: check whether `Cc1ccc(C(=O)N/C(=C2/OCCN2C)[P+](c2ccccc2)(c2ccccc2)c2ccccc2)cc1` shows growth below 80%
A. fulfilled

Q. Bench note: check whether `CC(=O)Nc1nc(-c2ccc(N3CCN(C)CC3)c(NS(=O)(=O)c3cccc4c(N(C)C)cccc34)c2)cs1` shows growth below 80%
A. fulfilled

Q. Bench note: check whether C=C[C@H]1[C@H](O[C@@H]2OC(CO)[C@@H](O)[C@H](O)C2OC(=O)c2c(O)cc(O)cc2-c2cccc(O)c2)OC=C2C(=O)OCC[C@H]21 (some centres not stated) shows growth below 80%
A. not fulfilled

Q. Bench note: check whether `O=C(CNc1nc(-c2ccccc2)cs1)Nc1cccc(Cl)c1` shows growth below 80%
A. fulfilled

Q. Bench note: check whether `Cc1ccn2c(C(=O)c3ccc(Br)cc3)cc(-c3cc(-c4ccc(N(C)C)cc4)c(C#N)c(N)n3)c2c1` shows growth below 80%
A. fulfilled

Q. Bench note: check whether `Cc1ccn2c(C(=O)c3ccccc3)cc(-c3cc(-c4ccc(N(C)C)cc4)c(C#N)c(N)n3)c2c1` shows growth below 80%
A. fulfilled

Q. Bench note: check whether `CC(=O)c1ccc(NC(=O)NCn2c(=O)[nH]c3ccccc3c2=O)cc1` shows growth below 80%
A. not fulfilled

Q. Bench note: check whether `N#Cc1c(NC(=O)c2cccc(C(F)(F)F)c2)sc2c1CCC(O)=C2` shows growth below 80%
A. fulfilled

Q. Bench note: check whether `COc1ccc(/C=C/C(=O)c2ccc(N3CCN(C)CC3)cc2)c(C(F)(F)F)c1` shows growth below 80%
A. fulfilled

Q. Bench note: check whether `O=C1Nc2ccc(Cl)cc2/C1=C/c1ccc(OCc2ccccn2)cc1` shows growth below 80%
A. fulfilled
